- Tested on: SW-620
- Assay summary: NCI tumour cell line growth inhibition, 48 h
The source made the active and inactive calls. No stated cut-off is given here; in the data, active = GI50 up to about 1.1 µM and inactive = higher.
# key: entry, value: GI50
Property measured: GI50

Molecule	Study target	Result
Nc1ccc2c(c1)C(=O)c1ccccc1-2	SW-620	68.1 µM (inactive)
O=[N+]([O-])c1cc(Cl)c(Cl)cc1[N+](=O)[O-]	SW-620	2.91 µM (inactive)
COC(=O)C1=C(C(=O)OC)C2(c3ccccc3)OC1(c1ccccc1)c1cc3ccccc3cc12	SW-620	1.76 µM (inactive)
CC(C)[C@@H]1CC[C@@H](C)C[C@H]1OC(=O)/C=C1/C2C=CC(O2)C1C(=O)O[C@@H]1C[C@H](C)CC[C@H]1C(C)C (stereo not given in full)	SW-620	> 100 µM (inactive)
COC(=O)/C=C1\SC2(O\C1=N/c1ccccc1)C1CC3CC(C1)CC2C3 (stereo not given)	SW-620	> 100 µM (inactive)
